Method notes: viability loss of HPDE-C7K cells – cell-based, fluorescence, HTS, primary screen (AID 431);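 further: 0% = DMSO solvent wells and 100% = doxorubicin-treated wells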
Condition description: HPDE-C7K KRASV12 cells, Alamar Blue viability, 48 h; at 10 µM; active compounds read high
Out of some 63,000 compounds screened, about 1,100 (1.7%) were called active. The list comes from a sample in which actives are over-represented; it also holds close analogues and randomly drawn compounds. Entries with a potency or affinity are not part of this list.
Quantity kind: cytotoxicity (%)
Answers are plain numbers, in %.

Parameters: items (list). Returns: cytotoxicity for each item.
1. CCOc1ccc(OC(=O)c2cccnc2)cc1
2. COc1ccc(C2=CC(c3c(C)nn(-c4ccccc4)c3Cl)n3nnnc3N2)cc1OC (configuration not stated)
3. CCOc1ccc2c(c1)N(C(=O)CN1C(=O)CCC1=O)C(C)(C)C=C2C
4. Cc1csc(=N)n1CC(=O)N1CCc2ccccc21
5. COc1cccc(C2=CC(c3cc(OC)ccc3OC)n3nnnc3N2)c1 (configuration not stated)

**Result**
10.2
84.4
-12.2
-5.1
65.1

* * *

Method notes: viability loss of HPDE-C7K cells – cell-based, fluorescence, HTS, primary screen (AID 431);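 further: 0% = DMSO solvent wells and 100% = doxorubicin-treated wells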
Condition description: HPDE-C7K KRASV12 cells, Alamar Blue viability, 48 h; at 10 µM; active compounds read high
Hit rate of the full screen: of about 63,000 compounds, about 1,100 (1.7%) were called active. The list comes from a sample in which actives are over-represented; it also holds close analogues and randomly drawn compounds. Potency and affinity values are given separately.
Record form. Attribute: cytotoxicity. Fill in for each entry.
Give bare numbers, in %.

>>> value_observed("CCCn1c(=O)c(C(=O)Nc2nnc(CC)s2)c(O)c2ccccc21")
14.3
>>> value_observed("CCOc1ccc(-c2[nH]ncc2Oc2cccc(OC)c2)c(O)c1")
58.3
>>> value_observed("CCn1c(=O)c(C(=O)NCCNCCO)c(O)c2ccccc21")
13.9
>>> value_observed("CCN(CC)c1ccc2c(C)c(CN3CCOCC3)c(=O)oc2c1")
26.6
>>> value_observed("CCOc1cc2c(C)cc(=O)oc2cc1Cl")
0.2

# batch size: 7; output cytotoxicity per entry
1. CCC(=O)Nc1ccc2c(c1)ncn2-c1ccccc1OC
2. O=C(CC(c1ccccc1)c1cc(Cl)ccc1O)N1CCOCC1 (centres undefined)
3. O=C(c1ccco1)N1CCN(c2nc(C(F)(F)F)nc3c2nnn3Cc2ccccc2)CC1
4. CC1CCCCN1S(=O)(=O)c1ccc2c(c1)oc(=O)n2CC(=O)O (centres undefined)
5. O=C(CCSc1nc(-c2ccco2)cc(C(F)(F)F)n1)NCC1CCCO1 (centres undefined)
6. CCn1c(=O)c(C(=O)Nc2cccnc2)c(O)c2ccccc21
7. CCOC(=O)c1sc2nc(CSc3nc4ccccc4n3CC)[nH]c(=O)c2c1C

**Result**
1. -32.9
2. 10.5
3. -16.9
4. -0.1
5. 3.2
6. 11.7
7. -11.3

List reported cytotoxicity for each of these compounds:
1. CCN(CC)c1ccc2c(C)c(-c3ccc(N)cc3)c(=O)oc2c1
2. CNC(=O)C1C2C=CC3(O2)C1C(=O)N(C1CC1)C3C(=O)NCc1ccc(OC)cc1 (centres undefined)
3. CCNc1ccc2c(Cl)cc(=O)oc2c1
4. CCN(CC)C(=O)Oc1ccc2c(=O)c(-c3ccc(OC)cc3)c(C)oc2c1
5. COc1ccc(-c2cc(C(=O)NCC(C)C)no2)cc1
6. Cc1ccc(CNc2ccc3c(c2)OCO3)c(C)c1
7. CCCn1nnc(NC(=O)c2cc3ccccc3o2)n1
8. C=CCn1c(=O)c(C(=O)Nc2nnc(C)s2)c(O)c2ccccc21

**Result**
1. 82.1
2. 3.6
3. 6.3
4. 4.7
5. -0.6
6. 64.8
7. -13.2
8. 9.1

I would be grateful if you could provide cytotoxicity for each of the following entries.
1. O=C(Nc1c(C(=O)O)oc2ccc(Br)cc12)c1ccccc1
2. CN1C(=O)CSc2ccc(NC(=O)Nc3ccccn3)cc21
3. Cc1nc(N2CCCC2)c2nnn(Cc3ccccc3Cl)c2n1

**Result**
[31.7, -13.1, -7.7]

**Query** Please list cytotoxicity recorded for the compound c1cc(CNc2ccc3c(c2)OCO3)ccn1
**Result** -0.7
